Readings of growth for the listed compounds
Test system: K-562 leukemia
Assay: NCI-60 one-dose screen, 48 h (100 = growth as untreated, 0 = no growth, -100 = all killed)
Settings: 10 µM
Compounds without any hit were thinned out: in the full panel of roughly 83,000, 20% have a hit. Calls of active or inactive are those of the source. Rule for the calls: active = growth percent below 10; inactive = the rest.

Please review the entries below; each comes with its answer.
Cc1cc(=O)oc2cc(OCCCCOc3ccc(/C=C/C(=O)Nc4cccc(Cl)c4)cc3)ccc12 :: 63.8% (inactive)
COC(=O)C(Cc1ccc(O)c(O)c1)NC(=O)C(CSC/C=C(\C)CCCC(C)CCCC(C)CCCC(C)C)NC(C)=O (centres undefined) :: 5.33% (active)
CC(=O)c1cc(C(=O)c2ccc3c(c2)NC(=O)CO3)n2ccc3ccccc3c12 :: 84.1% (inactive)

QUERY: Need growth of Cc1cccc(-c2nc(Nc3ccccc3C(=O)O)c3ccccc3n2)c1 , thanks.
RESULT: 28.7% (inactive)

QUERY: Field entry: N#Cc1c(NC(=O)c2ccc(C(F)(F)F)c(Cl)c2)sc2c1CCC(=O)C2
RESULT: 0.454% (active)

QUERY: Field entry: O=c1[nH]c2ccccc2cc1CSc1ccc(Nc2nccc(-c3ccc4c(c3)OCO4)n2)cc1
RESULT: 87.6% (inactive)

QUERY: Field entry: Cc1nc(Nc2nc(C)c3ccc(OCCN4CCOCC4)cc3n2)[nH]c(=O)c1C
RESULT: 14.1% (inactive)

QUERY: Field entry: COc1cc(OC(F)(F)F)ccc1C(=O)Nc1sc2c(c1C#N)CCC(=O)C2
RESULT: 11% (inactive)

QUERY: Field entry: CC(C)Sc1nc(NC2CC2)c(C#N)c(-c2ccccc2)n1
RESULT: 90% (inactive)

QUERY: Field entry: C/C(=C\CC/C=C(\C)CC/C=C(\C)CC[C@@H](O)C(C)(C)O)CC/C=C(\C)CC[C@@H](O)C(C)(C)O
RESULT: 10.4% (inactive)

QUERY: Field entry: CN(C(=O)c1ccc(C(F)(F)F)cc1C(F)(F)F)c1sc2c(c1C#N)CCC(=O)C2
RESULT: 6.49% (active)

QUERY: Field entry: COc1cc(C2CC(c3ccccc3)=Nc3c(N)nc(N)nc3N2)ccc1Oc1nc(Nc2ccc(F)cc2)nc(N(C)C)n1 (centres undefined)
RESULT: 17.9% (inactive)

QUERY: Field entry: O=C(N/C(=C1/OCCN1Cc1ccccc1)[P+](c1ccccc1)(c1ccccc1)c1ccccc1)c1ccccc1
RESULT: 8.08% (active)

QUERY: Field entry: Clc1cccc(N/N=C/c2c[nH]c3ccccc23)n1
RESULT: 13.8% (inactive)

----------
Tested on: HOP-92 NSCLC
Assay: NCI-60 one-dose screen, 48 h
Details: 10 µM
Compounds without any hit were thinned out: in the full panel of roughly 83,000, 20% have a hit. The source made the active and inactive calls. The calls were made as follows: active = growth percent below 10; inactive = the rest.
Could you please pick one outcome from this set? true = active, false = inactive

Would you please look over these solved cases?
COc1ccc(N(C)c2cc(C#N)nc3ccccc23)cc1/C=C/C(=O)NO :: true
C/C(=C\CC/C=C(\C)CC/C=C(\C)CC[C@@H](O)C(C)(C)O)CC/C=C(\C)CC[C@@H](O)C(C)(C)O :: false
C=C(C)[C@@H]1CC[C@]2(C(=O)OC)CC[C@]3(C)[C@H](CC[C@@H]4[C@@]5(C)CC[C@H](N)C(C)(C)[C@@H]5CC[C@]43C)[C@@H]12 :: true
CC(=O)Oc1ccccc1C(=O)Oc1ccc(C(=O)/C=C/c2ccncc2)cc1 :: false
COc1ccc2c3nc4cc(C)c(C)cc4nc3n(CCN(C)C)c2c1 :: false

Now for another entry.
QUERY: # lookup: test call for CN1CCN(c2ccc(Nc3nc(N4CCN(S(=O)(=O)c5ccc(F)cc5)CC4)c4sccc4n3)cc2)CC1
RESULT: true
